subjectOfTest: Nav 1.7 (Homo sapiens (Human), UniProt Q15858)
Sequence (Q15858 whole entry): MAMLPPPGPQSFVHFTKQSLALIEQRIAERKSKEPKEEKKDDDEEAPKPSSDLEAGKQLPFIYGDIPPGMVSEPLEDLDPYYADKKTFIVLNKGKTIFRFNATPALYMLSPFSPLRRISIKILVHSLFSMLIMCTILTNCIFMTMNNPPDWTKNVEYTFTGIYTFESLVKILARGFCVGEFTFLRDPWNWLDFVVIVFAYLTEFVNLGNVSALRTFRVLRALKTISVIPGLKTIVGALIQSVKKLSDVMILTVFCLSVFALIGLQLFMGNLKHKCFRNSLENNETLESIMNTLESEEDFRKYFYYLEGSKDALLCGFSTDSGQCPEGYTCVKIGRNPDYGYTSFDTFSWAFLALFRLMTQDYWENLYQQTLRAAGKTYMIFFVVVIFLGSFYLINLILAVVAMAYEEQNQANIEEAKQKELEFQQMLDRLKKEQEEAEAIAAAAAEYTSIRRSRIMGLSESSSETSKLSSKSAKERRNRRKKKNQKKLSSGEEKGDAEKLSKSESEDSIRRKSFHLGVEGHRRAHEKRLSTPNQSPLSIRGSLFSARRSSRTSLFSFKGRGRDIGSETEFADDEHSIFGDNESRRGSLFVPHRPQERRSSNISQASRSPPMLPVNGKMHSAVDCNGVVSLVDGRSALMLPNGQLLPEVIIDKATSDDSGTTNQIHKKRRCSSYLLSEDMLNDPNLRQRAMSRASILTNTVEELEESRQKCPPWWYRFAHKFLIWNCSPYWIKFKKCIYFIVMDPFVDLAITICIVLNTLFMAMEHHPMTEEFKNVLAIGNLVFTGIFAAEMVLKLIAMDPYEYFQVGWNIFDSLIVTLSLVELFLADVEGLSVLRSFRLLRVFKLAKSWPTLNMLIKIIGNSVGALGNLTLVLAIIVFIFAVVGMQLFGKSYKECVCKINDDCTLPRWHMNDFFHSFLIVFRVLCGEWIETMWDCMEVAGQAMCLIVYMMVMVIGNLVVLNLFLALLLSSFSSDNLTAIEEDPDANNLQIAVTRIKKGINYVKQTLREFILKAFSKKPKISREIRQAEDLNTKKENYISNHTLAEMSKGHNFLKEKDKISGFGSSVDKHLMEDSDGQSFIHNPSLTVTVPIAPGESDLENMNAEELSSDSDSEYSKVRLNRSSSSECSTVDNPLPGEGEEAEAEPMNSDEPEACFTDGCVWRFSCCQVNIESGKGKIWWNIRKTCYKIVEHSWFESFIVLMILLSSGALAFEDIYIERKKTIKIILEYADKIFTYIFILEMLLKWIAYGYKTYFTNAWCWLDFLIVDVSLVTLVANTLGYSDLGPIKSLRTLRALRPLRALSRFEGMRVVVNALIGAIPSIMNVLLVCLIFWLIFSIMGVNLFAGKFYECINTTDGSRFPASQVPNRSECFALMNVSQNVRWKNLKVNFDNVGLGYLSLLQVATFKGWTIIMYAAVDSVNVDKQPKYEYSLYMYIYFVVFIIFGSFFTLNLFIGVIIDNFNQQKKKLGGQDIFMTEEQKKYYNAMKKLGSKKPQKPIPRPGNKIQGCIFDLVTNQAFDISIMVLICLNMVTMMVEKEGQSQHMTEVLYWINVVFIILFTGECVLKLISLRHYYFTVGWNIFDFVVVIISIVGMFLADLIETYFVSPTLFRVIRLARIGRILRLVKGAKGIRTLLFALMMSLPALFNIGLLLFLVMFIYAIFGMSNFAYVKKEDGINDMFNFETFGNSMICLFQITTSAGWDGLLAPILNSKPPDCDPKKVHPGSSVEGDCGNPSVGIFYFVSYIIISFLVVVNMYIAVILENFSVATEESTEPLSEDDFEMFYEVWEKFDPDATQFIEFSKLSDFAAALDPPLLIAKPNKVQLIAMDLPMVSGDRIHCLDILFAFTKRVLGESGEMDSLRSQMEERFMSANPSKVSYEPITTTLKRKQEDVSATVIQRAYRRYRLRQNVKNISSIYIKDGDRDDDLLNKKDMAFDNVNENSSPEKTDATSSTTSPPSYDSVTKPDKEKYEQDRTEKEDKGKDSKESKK
testName: in-vitro Nav 1.7 PX data
Format: cell-based
runParameters: PatchXpress (PX), in vitro
I'd appreciate it if you marked entries class 1 when IC50 is lower than 400 nM and class 0 when it is not.

Solved cases below.
itemSmiles	categoryLabel
COc1cc(-c2ccc(F)c(C)c2)c(C#N)cc1-c1nccc2cc(S(=O)(=O)Nc3ccon3)ccc12	class 1
COc1cc(-c2ccc(Cl)c(C)c2)c(F)cc1-c1nccc2cc(S(=O)(=O)Nc3cccnn3)ccc12	class 1
COc1nc(NC2CCC(F)(F)CC2)ccc1-c1nccc2cc(S(=O)(=O)Nc3ccncn3)ccc12	class 0
COc1nc(N(CC(C)C)CC(C)C)ccc1-c1nccc2cc(S(=O)(=O)Nc3ccncn3)ccc12	class 0
COc1cc(-c2ccc(C)c(Cl)c2)c(Cl)cc1-c1nccc2cc(S(=O)(=O)Nc3ccon3)ccc12	class 1

Q: Could you please tell me whether IC50 recorded for `COc1nc(NC2CCCCC2)ccc1-c1nccc2cc(S(=O)(=O)Nc3ccncn3)ccc12` is less than 400 nM?
A: class 0

Q: Could you please tell me whether IC50 recorded for `COc1cc(-c2ccc(F)c(C)c2)c(F)cc1-c1nccc2cc(S(=O)(=O)Nc3ccon3)ccc12` is less than 400 nM?
A: class 1

====

subjectOfTest: UniProt Q15858
testName: Nav 1.7 in vitro PX assay (PatchXpress whole cell voltage clamp)
Assay type: cell-based
runParameters: PatchXpress (PX)
List of pIC50 values.
Note on pIC50: it is the negative log10 of concentration, concentration in mol/L.

compound	pIC50
COc1cc(-c2cccc(C)c2)c(C)cc1-c1ncnc2cc(S(=O)(=O)Nc3ccon3)ccc12 [Example 263]	6.99

Q: Please report pIC50 with UniProt Q15858 for item COc1cc(-c2ccc(C)c(Cl)c2)c(C)cc1-c1ncnc2cc(S(=O)(=O)Nc3ccon3)ccc12 [Example 267] .
A: 7.54

Q: Please report pIC50 with UniProt Q15858 for item COc1cc(-c2ccc(Cl)c(F)c2)c(C)cc1-c1ncnc2cc(S(=O)(=O)Nc3ccon3)ccc12 [Example 271] .
A: 7.33

Q: Please report pIC50 with UniProt Q15858 for item COc1cc(-c2ccc(F)c(F)c2)c(C)cc1-c1nccc2cc(S(=O)(=O)Nc3ccon3)ccc12 [Example 62] .
A: 7.42

====

subjectOfTest: Nav 1.7 (Homo sapiens (Human))
testName: Nav 1.7 in vitro PX assay (PatchXpress whole cell voltage clamp)
Assay type: cell-based
runParameters: in-vitro Nav 1.7 PX (PatchXpress)
pIC50: −log10 of the molar value.
The label depends only on pIC50: satisfied if it is at least 7, not satisfied if it is smaller.

itemSmiles	categoryLabel
COc1ccc(Cl)cc1-c1cc(OC)c(-c2nccc3cc(S(=O)(=O)Nc4ccon4)ccc23)cc1C	satisfied
COc1cc(-c2ccc(F)c(C3CC3)c2)c(C)cc1-c1ncnc2cc(S(=O)(=O)Nc3ccon3)ccc12	satisfied
COc1cc(-c2cc(C)cc(Cl)c2)c(Cl)cc1-c1ncnc2cc(S(=O)(=O)Nc3ccon3)ccc12	satisfied
COc1cc(-c2cccc(F)c2)c(C#N)cc1-c1cccc2cc(S(=O)(=O)Nc3ccon3)ccc12	not satisfied
COc1cc(F)cc(-c2cc(OC)c(-c3nccc4cc(S(=O)(=O)Nc5ccon5)ccc34)cc2F)c1	satisfied

Q: Does the compound `COc1cc(-c2ccc(Cl)c(F)c2)ccc1-c1nccc2cc(S(=O)(=O)Nc3ncccn3)ccc12` have recorded pIC50 that is 7 or more?
A: not satisfied

Q: Does the compound `COc1cc(-c2cc(C)cc(F)c2)c(Cl)cc1-c1ncnc2cc(S(=O)(=O)Nc3ccon3)ccc12` have recorded pIC50 that is 7 or more?
A: satisfied

Q: Does the compound `COc1cc(-c2cccc(F)c2)c(Cl)cc1-c1cn(C)c2cc(S(=O)(=O)Nc3ccon3)ccc12` have recorded pIC50 that is 7 or more?
A: not satisfied

====

subjectOfTest: Nav 1.5 (Homo sapiens (Human))
Sequence (Q14524 whole entry): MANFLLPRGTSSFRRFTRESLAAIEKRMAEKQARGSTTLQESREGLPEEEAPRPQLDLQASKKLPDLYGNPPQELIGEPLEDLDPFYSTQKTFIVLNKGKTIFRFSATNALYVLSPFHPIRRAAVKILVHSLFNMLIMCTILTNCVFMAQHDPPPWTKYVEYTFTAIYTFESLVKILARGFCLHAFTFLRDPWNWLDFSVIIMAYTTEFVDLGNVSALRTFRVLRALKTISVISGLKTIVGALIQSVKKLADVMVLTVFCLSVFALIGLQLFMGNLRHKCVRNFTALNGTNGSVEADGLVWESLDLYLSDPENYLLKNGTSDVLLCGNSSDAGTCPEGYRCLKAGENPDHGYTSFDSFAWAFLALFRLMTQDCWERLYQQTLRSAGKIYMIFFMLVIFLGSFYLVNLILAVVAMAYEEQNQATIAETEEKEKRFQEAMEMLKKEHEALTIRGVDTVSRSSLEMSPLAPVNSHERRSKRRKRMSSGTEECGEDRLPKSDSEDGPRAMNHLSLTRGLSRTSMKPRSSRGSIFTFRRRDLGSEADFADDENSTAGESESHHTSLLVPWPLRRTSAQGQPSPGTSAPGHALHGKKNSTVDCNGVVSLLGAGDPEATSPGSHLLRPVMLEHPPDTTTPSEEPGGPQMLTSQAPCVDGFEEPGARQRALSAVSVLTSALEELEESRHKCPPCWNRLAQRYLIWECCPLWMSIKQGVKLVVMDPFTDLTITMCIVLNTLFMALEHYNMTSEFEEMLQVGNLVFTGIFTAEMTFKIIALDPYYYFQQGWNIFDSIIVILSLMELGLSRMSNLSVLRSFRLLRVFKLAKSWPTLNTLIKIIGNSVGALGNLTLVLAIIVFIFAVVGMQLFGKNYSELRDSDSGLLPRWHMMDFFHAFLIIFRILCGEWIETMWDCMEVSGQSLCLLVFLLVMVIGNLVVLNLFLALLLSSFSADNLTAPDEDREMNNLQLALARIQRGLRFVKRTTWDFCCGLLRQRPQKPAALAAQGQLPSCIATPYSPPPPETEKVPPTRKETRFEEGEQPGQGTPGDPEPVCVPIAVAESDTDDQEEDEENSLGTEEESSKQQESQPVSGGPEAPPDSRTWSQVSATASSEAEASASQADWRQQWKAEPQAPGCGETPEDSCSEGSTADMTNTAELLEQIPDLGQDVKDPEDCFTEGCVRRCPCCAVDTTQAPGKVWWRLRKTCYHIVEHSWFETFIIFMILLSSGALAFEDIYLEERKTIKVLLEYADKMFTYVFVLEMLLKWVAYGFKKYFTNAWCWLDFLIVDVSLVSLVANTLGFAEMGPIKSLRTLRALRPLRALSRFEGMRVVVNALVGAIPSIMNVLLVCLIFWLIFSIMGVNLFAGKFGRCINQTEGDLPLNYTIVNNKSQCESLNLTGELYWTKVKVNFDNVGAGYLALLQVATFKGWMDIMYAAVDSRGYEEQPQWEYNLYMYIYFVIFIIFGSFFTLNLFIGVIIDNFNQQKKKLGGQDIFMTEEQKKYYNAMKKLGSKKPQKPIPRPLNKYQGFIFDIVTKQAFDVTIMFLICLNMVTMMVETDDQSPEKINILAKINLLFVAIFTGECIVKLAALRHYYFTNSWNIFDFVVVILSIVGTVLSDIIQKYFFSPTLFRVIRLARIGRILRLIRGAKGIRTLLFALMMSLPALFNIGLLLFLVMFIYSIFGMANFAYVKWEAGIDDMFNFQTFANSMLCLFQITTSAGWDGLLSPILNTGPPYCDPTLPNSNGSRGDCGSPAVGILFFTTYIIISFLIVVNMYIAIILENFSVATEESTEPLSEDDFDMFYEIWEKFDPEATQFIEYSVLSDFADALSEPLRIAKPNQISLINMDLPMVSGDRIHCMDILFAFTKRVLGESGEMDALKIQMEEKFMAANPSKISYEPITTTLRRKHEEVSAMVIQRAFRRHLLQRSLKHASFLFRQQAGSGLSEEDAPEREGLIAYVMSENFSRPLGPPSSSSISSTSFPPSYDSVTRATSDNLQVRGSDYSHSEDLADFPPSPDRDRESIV
testName: in-vitro Nav 1.5 PX data
runParameters: read-out: Nav 1.5 PX IC50; in-vitro Nav 1.5 PX data
pIC50: −log10 of the molar value.
List of pIC50 values.

itemSmiles	pIC50
COc1cc(Oc2ccccc2C)ccc1-c1nccc2cc(S(=O)(=O)Nc3ccncn3)ccc12	< 5.00
Cc1ccc(Oc2ccccc2)cc1-c1nccc2cc(S(=O)(=O)Nc3ccncn3)ccc12	< 5.00
Cc1ccc(OCc2ccccc2)cc1-c1nccc2cc(S(=O)(=O)Nc3ccncn3)ccc12	< 4.52
COc1cc(-c2cccc(F)c2)c(C#N)cc1-c1nccc2cc(S(=O)(=O)Nc3ccncn3)ccc12	< 5.00
O=S(=O)(Nc1ccon1)c1ccc2c(-c3ccc(-c4cccc(C(F)(F)F)c4)cc3CO)nccc2c1	< 5.00
COc1cc(-c2ccc(C)c(Cl)c2)c(C#N)cc1-c1nccc2cc(S(=O)(=O)Nc3ccncn3)ccc12	< 4.52
COc1cc(-c2cc(C)cc(F)c2)c(C#N)cc1-c1nccc2cc(S(=O)(=O)Nc3ccncn3)ccc12	< 4.52
COc1cc(-c2ccc(F)c(F)c2)c(C)cc1-c1nccc2cc(S(=O)(=O)Nc3nncs3)ccc12	< 5.00

Q: Supply reported pIC50 belonging to this molecule: `COc1cc(-c2cc(C)cc(Cl)c2)c(C#N)cc1-c1nccc2cc(S(=O)(=O)Nc3ccncn3)ccc12`
A: 4.74

Q: Supply reported pIC50 belonging to this molecule: `COc1cc(-c2ccc(F)c(C)c2)c(C#N)cc1-c1nccc2cc(S(=O)(=O)Nc3ccncn3)ccc12`
A: 4.63

Q: Supply reported pIC50 belonging to this molecule: `COc1cc(-c2ccc(C)c(F)c2)c(C#N)cc1-c1nccc2cc(S(=O)(=O)Nc3ccncn3)ccc12`
A: < 5.00

Q: Supply reported pIC50 belonging to this molecule: `COc1cc(-c2cc(F)cc(F)c2)c(C#N)cc1-c1nccc2cc(S(=O)(=O)Nc3ccncn3)ccc12`
A: < 5.00

Q: Supply reported pIC50 belonging to this molecule: `COc1ccc(-c2ccc(C(F)(F)F)cc2)cc1-c1nccc2cc(S(=O)(=O)Nc3ccncn3)ccc12`
A: < 5.00

====

subjectOfTest: Nav 1.7 (Homo sapiens (Human))
testName: Nav 1.7 in vitro PX assay (PatchXpress whole cell voltage clamp);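 further: holding potential set for 20 to 50% inactivation, sodium current evoked by a 20 ms step to −10 mV, peak current inhibition read after compound exposure, 3–5 cells per concentration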
Assay type: cell-based
runParameters: HEK 293 cells stably transfected with human Nav1.7; PatchXpress; partially inactivated state
IC50 class ranges: lower bin: < 50 nM; middle bin: ≥ 50 nM and < 100 nM; upper bin: ≥ 100 nM

compound	categoryLabel
COc1cc(-c2ccc(Cl)c(C)c2)c(Cl)cc1-c1nccc2cc(S(=O)(=O)Nc3nncs3)ccc12	lower bin
COc1ccc(F)c(-c2cc(OC)c(-c3ncnc4cc(S(=O)(=O)Nc5ccon5)ccc34)cc2C)c1	middle bin
COc1cc(-c2cc(OC)c(-c3ncnc4cc(S(=O)(=O)Nc5ccon5)ccc34)cc2C)ccc1F	middle bin
COc1cc(-c2cccc(Cl)c2)c(F)cc1-c1c[nH]c(=O)c2cc(S(=O)(=O)Nc3ccon3)ccc12	upper bin
COc1cc(-c2cccc(F)c2)c(Cl)cc1-c1c(OC)nnc2cc(S(=O)(=O)Nc3ccon3)ccc12	upper bin
COc1cc(-c2cccc(F)c2)ccc1-c1c(=O)n(C)cc2cc(S(=O)(=O)Nc3ccon3)ccc12	upper bin

Turning to the following compound.
Q: Which IC50 band matches `COc1cc(-c2cccc(F)c2F)c(C)cc1-c1ncnc2cc(S(=O)(=O)Nc3ccon3)ccc12` ?
A: middle bin

====

List of pIC50 values.
subjectOfTest: Nav 1.7 (Homo sapiens (Human), UniProt Q15858)
testName: in-vitro Nav 1.7 PX data
Type: cell-based
runParameters: PatchXpress (PX), in vitro
Note on pIC50: it is the negative log10 of concentration, concentration in mol/L.

Q: Supply reported pIC50 belonging to this compound: COc1cc(-c2cccc(F)c2)c(Cl)cc1-c1nccc2cc(S(=O)(=O)Nc3ccon3)c(F)cc12 [Example 43]
A: 7.34

====

subjectOfTest: Nav 1.7 (Homo sapiens (Human), UniProt Q15858)
testName: in-vitro Nav 1.7 PX data
Format: cell-based
runParameters: PatchXpress (PX), in vitro
reportedMetric: IC50 (µM)
// units = µM; emit number, no label

Consider the worked cases shown below.
itemSmiles	unitSymbol	measValue
COc1ccc(-c2nccc3cc(S(=O)(=O)Nc4ccncn4)ccc23)c(NCC(C)(C)C)n1	µM	2.51
COc1nc(OC2CCCCC2)ccc1-c1nccc2cc(S(=O)(=O)Nc3ccncn3)ccc12	µM	1.73
COc1cc(-c2cc(F)cnc2OC)c(F)cc1-c1nccc2cc(S(=O)(=O)Nc3ncccn3)ccc12	µM	0.278
COc1cc(-c2cc(F)cc(Cl)c2)c(C#N)cc1-c1nccc2cc(S(=O)(=O)Nc3ccon3)ccc12	µM	0.0244
COc1cc(-c2cc(F)cc(F)c2)c(F)cc1-c1nccc2cc(S(=O)(=O)Nc3ccon3)ccc12	µM	0.0345
COc1cc(-c2ccc(C)c(Cl)c2)c(C#N)cc1-c1nccc2cc(S(=O)(=O)Nc3ccon3)ccc12	µM	0.033

Q: Please report IC50 with Nav 1.7 (Homo sapiens (Human), UniProt Q15858) for item `COc1nc(Oc2ccc(F)cc2)ccc1-c1nccc2cc(S(=O)(=O)Nc3ccncn3)ccc12` .
A: 1.51

// data source = patent US9776995B2
